Target: 5-hydroxytryptamine receptor 6 (Homo sapiens)
Experiment: Maximum effective concentration for cAMP production in HeLa cells expressing human 5-HT6 receptors
Format: functional, cell-based
Listed below: Emax values for each entry.
readout name: Emax (%)

| compound | subject of test | measured |
| --- | --- | --- |
| O=S(=O)(c1ccccc1F)n1cc(C2=CCCNC2)c2ccccc21 | 5-hydroxytryptamine receptor 6 (Homo sapiens) | 52 |
| O=S(=O)(c1ccccc1)n1cc(C2CCCNC2)c2ccccc21 (stereo in doubt) | 5-hydroxytryptamine receptor 6 (Homo sapiens) | 100 |
| O=S(=O)(c1ccccc1)n1cc(C2CCCNC2)c2ccccc21 (single isomer, unassigned; enantiomer 1) | 5-hydroxytryptamine receptor 6 (Homo sapiens) | 0 |
| Cc1nn(C)c(Cl)c1S(=O)(=O)n1cc(C2=CCCNC2)c2ccccc21 | 5-hydroxytryptamine receptor 6 (Homo sapiens) | 50 |
| O=S(=O)(c1ccc(Cl)s1)n1cc(C2CCCNC2)c2ccccc21 (stereo not given) | 5-hydroxytryptamine receptor 6 (Homo sapiens) | 93 |

* * *

The following compounds are listed with their measured Emax values.
Target: 5-hydroxytryptamine receptor 6 (Homo sapiens)
Experiment: Maximum effective concentration for cAMP production in HeLa cells expressing human 5-HT6 receptors
Assay type: functional, cell-based

| compound | Emax (%) |
| --- | --- |
| O=S(=O)(c1ccc(F)cc1)n1cc(C2=CCCNC2)c2ccccc21 | 62 |
| O=S(=O)(c1ccccc1)n1cc(C2=CCCNC2)c2ccccc21 | 41 |
| CN1CCC[C@@H]1Cc1cn(S(=O)(=O)c2ccc(Br)s2)c2ccccc12 | 76.5 |
| O=S(=O)(c1cccc(F)c1)n1cc(C2=CCCNC2)c2ccccc21 | 51.5 |
| O=S(=O)(c1ccccc1)n1cc(C2CCCNC2)c2ccccc21 (racemic) | 100 |
| O=S(=O)(c1ccc(F)c(F)c1)n1cc(C2CCCNC2)c2ccccc21 (stereo unspecified) | 60.5 |

* * *

Molecular target: 5-hydroxytryptamine receptor 6 (Homo sapiens, UniProt P50406)
Sequence (P50406 whole entry): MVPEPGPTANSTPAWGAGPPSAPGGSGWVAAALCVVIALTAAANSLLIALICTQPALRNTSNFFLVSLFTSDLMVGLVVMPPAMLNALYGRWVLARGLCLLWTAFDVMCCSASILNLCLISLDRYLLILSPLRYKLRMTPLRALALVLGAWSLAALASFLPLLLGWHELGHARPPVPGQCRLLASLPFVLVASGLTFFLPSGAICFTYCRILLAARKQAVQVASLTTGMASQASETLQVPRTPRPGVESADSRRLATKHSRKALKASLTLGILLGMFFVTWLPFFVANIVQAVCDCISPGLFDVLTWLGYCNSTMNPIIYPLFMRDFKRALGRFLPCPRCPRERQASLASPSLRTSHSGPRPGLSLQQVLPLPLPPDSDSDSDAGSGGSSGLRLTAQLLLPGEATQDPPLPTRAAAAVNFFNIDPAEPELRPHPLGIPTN
Experiment: Inhibition of cAMP production in HeLa cells expressing human 5-HT6 receptor
pIC50: −log10 of the molar value.
readout name: pIC50

| compound | measured |
| --- | --- |
| COc1ccc(S(=O)(=O)n2cc(C3CCN(C)C3)c3ccccc32)cc1OC (stereo not drawn) | 7.01 |
| CN1CCC(c2cn(S(=O)(=O)c3ccc(Cl)c(Cl)c3)c3ccccc23)C1 (stereo not drawn) | 6.97 |
| CN1CCC[C@H]1Cc1cn(S(=O)(=O)c2ccccc2Br)c2ccccc12 | 7.12 |
| O=S(=O)(c1ccccc1Br)n1cc(C2CCN(Cc3ccccc3)C2)c2ccccc21 (stereo not drawn) | 7.68 |
| CN1CCC(c2cn(S(=O)(=O)c3ccc(F)cc3)c3ccccc23)C1 (stereo not drawn) | 7.28 |
| O=S(=O)(c1ccc(Cl)c(Cl)c1)n1cc(C2CCN(Cc3ccccc3)C2)c2ccccc21 (stereo not drawn) | 7.21 |
| CN1CCC[C@H]1Cc1cn(S(=O)(=O)c2ccc(N)cc2)c2ccccc12 | 7.61 |
| CN1CCC[C@H]1Cc1cn(S(=O)(=O)c2cccc(Cl)c2)c2ccccc12 | 7.02 |
| CN1CCC[C@H]1Cc1cn(S(=O)(=O)c2ccc(Br)s2)c2ccccc12 | 6.95 |
| CN1CCC(c2cn(S(=O)(=O)c3ccc(I)cc3)c3ccccc23)C1 (stereo not drawn) | 7.36 |
| CN1CCC(c2cn(S(=O)(=O)c3ccc(Cl)cc3)c3ccccc23)C1 (stereo not drawn) | 7.07 |
| CN1CCC[C@H]1Cc1cn(S(=O)(=O)c2ccc(Cl)s2)c2ccccc12 | 9.00 |
| CN1CCC[C@@H]1Cc1cn(S(=O)(=O)c2ccccc2)c2ccccc12 | 9.22 |
| CN1CCC[C@H]1Cc1cn(S(=O)(=O)c2ccc(I)cc2)c2ccccc12 | 7.31 |
| Nc1ccc(S(=O)(=O)n2cc(C[C@@H]3CCCN3)c3ccccc32)cc1 | 8.12 |
| CN1CCC(c2cn(S(=O)(=O)c3ccccc3Br)c3ccccc23)C1 (stereo not drawn) | 7.27 |
| Cc1ccc(S(=O)(=O)n2cc(C3CCN(Cc4ccccc4)C3)c3ccccc32)cc1 (stereo not drawn) | 6.91 |
| Cc1ccc(S(=O)(=O)n2cc(C[C@@H]3CCCN3C)c3ccccc32)cc1 | 7.25 |
| COc1ccc(S(=O)(=O)n2cc(C[C@@H]3CCCN3C)c3ccccc32)cc1OC | 9.10 |
| CN1CCC[C@H]1Cc1cn(S(=O)(=O)c2ccc(Cl)cc2)c2ccccc12 | 8.09 |
| Cc1nc(N)sc1S(=O)(=O)n1cc(C2CCN(Cc3ccccc3)C2)c2ccccc21 (stereo not drawn) | 6.96 |
| CN1CCC[C@H]1Cc1cn(S(=O)(=O)c2ccc(Cl)c(Cl)c2)c2ccccc12 | 8.14 |
| CN1CCC[C@H]1Cc1cn(S(=O)(=O)c2ccccc2)c2ccccc12 | 7.09 |
| Nc1ccc(S(=O)(=O)n2cc(C3CCN(Cc4ccccc4)C3)c3ccccc32)cc1 (stereo not drawn) | 7.60 |
| Cc1c(S(=O)(=O)n2cc(C[C@@H]3CCCN3C)c3ccccc32)sc2ccc(Cl)cc12 | 7.96 |
| O=S(=O)(c1ccc(Br)s1)n1cc(C2CCN(Cc3ccccc3)C2)c2ccccc21 (stereo not drawn) | 6.96 |
| CN1CCC(c2cn(S(=O)(=O)c3ccc(N)cc3)c3ccccc23)C1 (stereo not drawn) | 7.81 |
| COc1ccc(S(=O)(=O)n2cc(C3CCCNC3)c3ccccc32)cc1 (stereo not drawn) | 8.14 |

* * *

Molecular target: 5-hydroxytryptamine receptor 6 (Homo sapiens)
pKi: −log10 of the molar value.
Label label 1 for high-side pKi (at or above 8) and label 0 for low-side pKi (below it).

| molecule | category |
| --- | --- |
| Cc1ccc(S(=O)(=O)n2cc(C[C@@H]3CCCN3)c3ccccc32)cc1 | label 0 |
| COc1ccc(S(=O)(=O)n2cc(C[C@@H]3CCCN3C)c3ccccc32)cc1 | label 0 |
| CN1CCC[C@H]1Cc1cn(S(=O)(=O)c2ccc(N)cc2)c2ccccc12 | label 1 |
| O=S(=O)(c1ccccc1)n1c2c(c3ccccc31)CCNC2 | label 0 |
| O=S(=O)(c1ccc(Br)s1)n1cc(C[C@@H]2CCCN2)c2ccccc21 | label 0 |
| O=S(=O)(c1ccc(Cl)c(Cl)c1)n1cc(C[C@@H]2CCCN2)c2ccccc21 | label 0 |

* * *

Target: 5-hydroxytryptamine receptor 6 (Homo sapiens)
Assay: Displacement of [3H]LSD from cloned human 5-hydroxytryptamine 6 receptor expressed in HeLa cells
Format: cell-based
Quick rule for you: Ki under 10 nM gets Met, anything else gets Not met.

| molecule | subject of test | category |
| --- | --- | --- |
| O=S(=O)(c1ccc(Cl)cc1)n1cc(C[C@@H]2CCCN2)c2ccccc21 | 5-hydroxytryptamine receptor 6 (Homo sapiens) | Not met |
| O=S(=O)(c1cccc(C(F)(F)F)c1)n1cc(C2=CCCNC2)c2ccccc21 | 5-hydroxytryptamine receptor 6 (Homo sapiens) | Not met |
| Nc1ccc(S(=O)(=O)n2cc(C[C@@H]3CCCN3)c3ccccc32)cc1 | 5-hydroxytryptamine receptor 6 (Homo sapiens) | Met |
| O=S(=O)(c1ccc(F)cc1)n1cc(C2=CCCNC2)c2ccccc21 | 5-hydroxytryptamine receptor 6 (Homo sapiens) | Not met |
| CN1CCC[C@@H]1Cc1cn(S(=O)(=O)c2ccc(Br)s2)c2ccccc12 | 5-hydroxytryptamine receptor 6 (Homo sapiens) | Met |

* * *

Target: UniProt:P50406
Assay: Maximum inhibition of cAMP production in HeLa cells expressing human 5-HT6 receptors
Format: functional, cell-based
readout name: Imax (%)

| molecule | measured |
| --- | --- |
| COc1ccc(S(=O)(=O)n2cc(C3CCCNC3)c3ccccc32)cc1 (centres undefined) | 65.5 |
| CN1CCC(c2cn(S(=O)(=O)c3ccc(I)cc3)c3ccccc23)C1 (centres undefined) | 93.5 |
| COc1ccc(S(=O)(=O)n2cc(C3CCN(C)C3)c3ccccc32)cc1OC (centres undefined) | 100 |
| Cc1c(S(=O)(=O)n2cc(C[C@@H]3CCCN3C)c3ccccc32)sc2ccc(Cl)cc12 | 87.5 |
| O=S(=O)(c1ccccc1Br)n1cc(C2CCN(Cc3ccccc3)C2)c2ccccc21 (centres undefined) | 62 |
| Cc1ccc(S(=O)(=O)n2cc(C3CCN(Cc4ccccc4)C3)c3ccccc32)cc1 (centres undefined) | 72 |
| O=S(=O)(c1ccc(Br)s1)n1cc(C2CCN(Cc3ccccc3)C2)c2ccccc21 (centres undefined) | 69 |
| CN1CCC[C@H]1Cc1cn(S(=O)(=O)c2ccccc2Br)c2ccccc12 | 87.5 |
| CN1CCC(c2cn(S(=O)(=O)c3ccc(Cl)c(Cl)c3)c3ccccc23)C1 (centres undefined) | 100 |
| CN1CCC(c2cn(S(=O)(=O)c3ccccc3Br)c3ccccc23)C1 (centres undefined) | 98.5 |
| CN1CCC[C@H]1Cc1cn(S(=O)(=O)c2ccc(N)cc2)c2ccccc12 | 100 |
| Nc1ccc(S(=O)(=O)n2cc(C3CCN(Cc4ccccc4)C3)c3ccccc32)cc1 (centres undefined) | 97 |
| CN1CCC(c2cn(S(=O)(=O)c3ccc(Cl)cc3)c3ccccc23)C1 (centres undefined) | 86.5 |
| Cc1ccc(S(=O)(=O)n2cc(C[C@@H]3CCCN3C)c3ccccc32)cc1 | 78.5 |
| CN1CCC[C@H]1Cc1cn(S(=O)(=O)c2ccc(Br)s2)c2ccccc12 | 96 |
| CN1CCC(c2cn(S(=O)(=O)c3ccc(F)cc3)c3ccccc23)C1 (centres undefined) | 83.5 |
| CN1CCC(c2cn(S(=O)(=O)c3ccc(N)cc3)c3ccccc23)C1 (centres undefined) | 89.5 |
| Nc1ccc(S(=O)(=O)n2cc(C[C@@H]3CCCN3)c3ccccc32)cc1 | 72.9 |
| O=S(=O)(c1ccc(Cl)c(Cl)c1)n1cc(C2CCN(Cc3ccccc3)C2)c2ccccc21 (centres undefined) | 63 |
| CN1CCC[C@H]1Cc1cn(S(=O)(=O)c2cccc(Cl)c2)c2ccccc12 | 77 |
| CN1CCC[C@H]1Cc1cn(S(=O)(=O)c2ccc(Cl)cc2)c2ccccc12 | 86 |
| CN1CCC[C@H]1Cc1cn(S(=O)(=O)c2ccc(I)cc2)c2ccccc12 | 99.5 |
| CN1CCC[C@H]1Cc1cn(S(=O)(=O)c2ccccc2)c2ccccc12 | 87 |
| CN1CCC[C@H]1Cc1cn(S(=O)(=O)c2ccc(Cl)s2)c2ccccc12 | 99 |
